Each entry below carries its reported log10 AUC(0-t).
- measurement.description: Mouse PK studies after oral and IV dosing
- Format: in vivo
- reported.conditions: in vivo, iv, 1 mg/kg, IV, dose 1 mg/kg, read-out: IV AUC(0 − t)
parameter: log10 AUC(0-t) (log10 of the value in ng·h/mL)

compound: C[C@H]1CC2(CCN(c3ccc(C(=O)N4CCN(CC5CN(c6ccc7c(c6)C(=O)N(C6CCC(=O)NC6=O)C7=O)C5)CC4)nn3)CC2)CN1c1ccc(C#N)c(Cl)c1 (stereo partly shown)
log10 AUC(0-t): 3.89
//
compound: C[C@H]1CC2(CCN(c3cnc(C(=O)N4CCN(CC5CCN(c6ccc7c(c6)C(=O)N(C6CCC(=O)NC6=O)C7=O)CC5)CC4)cn3)CC2)CN1c1ccc(C#N)c(Cl)c1 (stereo partly shown)
log10 AUC(0-t): 2.26
//
compound: C[C@H]1CC2(CCN(c3ccc(C(=O)N4CCC(CN5CCN(c6ccc7c(c6)C(=O)N(C6CCC(=O)NC6=O)C7=O)CC5)CC4)nn3)CC2)CN1c1ccc(C#N)c(Cl)c1 (stereo partly shown)
log10 AUC(0-t): 3.33
//
compound: C[C@H]1CC2(CCN(c3ccc(C(=O)N4CCC(CN5CCN(c6cc7c(cc6F)C(=O)N(C6CCC(=O)NC6=O)C7=O)CC5)CC4)cc3)CC2)CN1c1ccc(C#N)c(Cl)c1 (stereo partly shown)
log10 AUC(0-t): 3.89
//
compound: C[C@H]1CC2(CCN(c3ccc(C(=O)N4CCN(C5CN(c6ccc7c(c6)C(=O)N(C6CCC(=O)NC6=O)C7)C5)CC4)cc3)CC2)CN1c1ccc(C#N)c(Cl)c1 (stereo partly shown)
log10 AUC(0-t): 4.00
//
compound: C[C@H]1CC2(CCN(c3cnc(C(=O)N4CCC(CN5CCN(c6cc7c(cc6F)C(=O)N(C6CCC(=O)NC6=O)C7=O)CC5)CC4)cn3)CC2)CN1c1ccc(C#N)c(Cl)c1 (stereo partly shown)
log10 AUC(0-t): 2.92
//
compound: C[C@H]1CC2(CCN(c3ccc(C(=O)N4CCN(CC5CN(c6cc7c(cc6F)C(=O)N(C6CCC(=O)NC6=O)C7=O)C5)CC4)cc3)CC2)CN1c1ccc(C#N)c(Cl)c1 (stereo partly shown)
log10 AUC(0-t): 3.54
//
compound: C[C@H]1CC2(CCN(c3ccc(C(=O)N4CCC(CN5CCN(c6ccc7c(c6)C(=O)N(C6CCC(=O)NC6=O)C7=O)CC5)CC4)cc3)CC2)CN1c1ccc(C#N)c(Cl)c1 (stereo partly shown)
log10 AUC(0-t): 3.72
//
compound: C[C@H]1CC2(CCN(c3cnc(C(=O)N4CCC(CN5Cc6cc7c(cc6C5)C(=O)N(C5CCC(=O)NC5=O)C7=O)CC4)cn3)CC2)CN1c1ccc(C#N)c(Cl)c1 (stereo partly shown)
log10 AUC(0-t): 2.98
//
compound: C[C@H]1CC2(CCN(c3ccc(C(=O)N4CCN(CC5CN(c6ccc7c(c6)C(=O)N(C6CCC(=O)NC6=O)C7=O)C5)CC4)c(F)c3)CC2)CN1c1ccc(C#N)c(Cl)c1 (stereo partly shown)
log10 AUC(0-t): 3.71
//
compound: C[C@H]1CC2(CCN(c3ccc(C(=O)N4CCN(C5CN(c6ccc7c(c6)CN(C6CCC(=O)NC6=O)C7=O)C5)CC4)cc3)CC2)CN1c1ccc(C#N)c(Cl)c1 (stereo partly shown)
log10 AUC(0-t): 3.48
//
compound: C[C@H]1CC2(CCN(c3ccc(C(=O)N4CCC(CN5CCN(c6cc7c(cc6F)C(=O)N(C6CCC(=O)NC6=O)C7=O)CC5)CC4)nn3)CC2)CN1c1ccc(C#N)c(Cl)c1 (stereo partly shown)
log10 AUC(0-t): 3.69
//
compound: C[C@H]1CC2(CCN(c3ccc(C(=O)N4CCN(C5CN(c6ccc7c(c6)C(=O)N(C6CCC(=O)NC6=O)C7=O)C5)CC4)cc3F)CC2)CN1c1ccc(C#N)c(Cl)c1 (stereo partly shown)
log10 AUC(0-t): 3.61
//
compound: C[C@H]1CC2(CCN(c3ccc(C(=O)N4CCN(C5CCN(c6ccc7c(c6)C(=O)N(C6CCC(=O)NC6=O)C7=O)CC5)CC4)cc3)CC2)CN1c1ccc(C#N)c(Cl)c1 (stereo partly shown)
log10 AUC(0-t): 3.70
//
compound: C[C@H]1CC2(CCN(c3ccc(C(=O)N4CCN(CC5CN(c6ccc7c(c6)C(=O)N(C6CCC(=O)NC6=O)C7=O)C5)CC4)cc3F)CC2)CN1c1ccc(C#N)c(Cl)c1 (stereo partly shown)
log10 AUC(0-t): 3.23
//
compound: C[C@H]1CC2(CCN(c3cnc(C(=O)N4CCC(N5CCN(c6ccc7c(c6)C(=O)N(C6CCC(=O)NC6=O)C7=O)CC5)CC4)cn3)CC2)CN1c1ccc(C#N)c(Cl)c1 (stereo partly shown)
log10 AUC(0-t): 2.93

Entry source: patent US20220380368A1
